All values here come from patent US20210078988A1.

Target: indoleamine 2, 3-dioxygenase (IDO1) (Homo sapiens)
Construct: human peripheral blood mononuclear cells (PBMC) (PB003F; host or cells: human PBMC stimulated with IFN-gamma and LPS
Assay: PBMC IDO1 assay (kynurenine detection via mass spectrometry)
Format: cell-based
Details: human PBMC stimulated with IFN-γ and LPS, 2 days, kynurenine by mass spectrometry; read-out: IDO1 PBMC pIC50 (converted)
Task for the reader: assign each of the following molecules its reported IC50.
One number for each entry, in µM.

Below are worked cases with known answers.
CC(C)(C)OC(=O)N1CCC(C[C@@H](NC(=O)c2ccc(Cl)cc2)c2ccccc2)CC1 :: 0.794
O=C(NC(CC1CCN(C(=O)OC2CCC2)CC1)c1ccccc1)c1ccc(Cl)cc1 (stereo not shown) :: 0.0126
CC(C)(C)CC(=O)NC(CC1CCN(C(=O)OC(C)(C)C)CC1)c1ccccc1 (stereo not shown) :: 0.398

Please find the next molecule below.
Enquiry: Given CC(C)(C)OC(=O)N1CCC(CC(NC(=O)c2ccco2)c2ccccc2)CC1 (stereo not shown) , respond with its IC50.
Return: 0.631

====

Target: indoleamine 2, 3-dioxygenase (IDO1) (Homo sapiens, UniProt P14902)
Construct: human peripheral blood mononuclear cells (PBMC) (PB003F; host or cells: human PBMC stimulated with IFN-gamma and LPS
Sequence (P14902 whole entry): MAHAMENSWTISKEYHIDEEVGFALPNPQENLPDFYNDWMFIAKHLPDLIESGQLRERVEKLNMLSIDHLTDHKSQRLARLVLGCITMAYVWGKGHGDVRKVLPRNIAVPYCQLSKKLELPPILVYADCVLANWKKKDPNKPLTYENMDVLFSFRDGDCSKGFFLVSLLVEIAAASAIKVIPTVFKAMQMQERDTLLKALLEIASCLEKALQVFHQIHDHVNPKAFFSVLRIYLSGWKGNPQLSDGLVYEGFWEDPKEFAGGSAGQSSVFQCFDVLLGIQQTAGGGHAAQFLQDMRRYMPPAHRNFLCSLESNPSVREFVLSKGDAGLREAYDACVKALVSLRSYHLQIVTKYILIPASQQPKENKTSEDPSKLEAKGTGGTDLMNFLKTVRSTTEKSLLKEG
Experiment: PBMC IDO1 assay (kynurenine detection via mass spectrometry)
Type: cell-based
Settings: human PBMC stimulated with IFN-γ and LPS, 2 days, kynurenine by mass spectrometry; read-out: IDO1 PBMC pIC50 (converted)
reported metric: IC50 (nM)
Give bare numbers, in nM.

Below are worked cases with known answers.
C#CCOc1ccc(C(=O)NC(CC2CCN(C(=O)OC(C)(C)C)CC2)c2ccccc2)cc1 (stereo not shown) [Example 86] :: 20
COc1ccc([C@H](CC2CCN(C(=O)OC(C)(C)C)CC2)NC(=O)c2ccc(F)cc2)cn1 [Example 17] :: 7.94
CC(C)CS(=O)(=O)N1CCC(CC(NC(=O)c2ccc(Cl)cc2)c2ccccc2)CC1 (stereo not shown) [Example 166] :: 100

Please find the next compound below.
Enquiry: Given O=C(NC(CC1CCN(S(=O)(=O)c2ccccc2)CC1)c1ccccc1)c1ccc(Cl)cc1 (stereo not shown) [Example 215] , respond with its IC50.
Return: 398

====

Biological target: indoleamine 2, 3-dioxygenase (IDO1) (Homo sapiens, UniProt P14902)
Construct: human peripheral blood mononuclear cells (PBMC) (PB003F; host or cells: human PBMC stimulated with IFN-gamma and LPS
Assay: PBMC IDO1 assay (kynurenine detection via mass spectrometry)
Assay type: cell-based
Conditions: human PBMC stimulated with IFN-γ and LPS, 2 days, kynurenine by mass spectrometry; read-out: IDO1 PBMC pIC50 (converted)
Experimental: Compounds of the present invention were tested via high-throughput cellular assays utilizing detection of kynurenine via mass spectrometry and cytotoxicity as end-points. […] Cellular toxicity due to the effect of compound treatment was measured using CellTiter-Glo® reagent (CTG) (Promega Corporation, Madison, Wis.), which is based on luminescent detection of ATP, an indicator of metabolically active cells. […]
reported metric: IC50 (nM)
Numbers only, in nM.

Below are worked cases with known answers.
CCN(CCOC)c1nnc(C(CC2CCN(C(=O)OC(C)(C)C)CC2)NC(=O)c2ccc(C)s2)o1 (stereo not drawn) [Example 82] :: 15.8
COc1ccc(C(=O)NC(CC2CCN(C(=O)OC(C)(C)C)CC2)c2ccccc2)cn1 (stereo not drawn) [Example 157] :: 100
CC(C)CC(=O)N1CCC(CC(NC(=O)c2ccc(Cl)cc2)c2ccccc2)CC1 (stereo not drawn) [Example 163] :: 100
CC(C)(C)OC(=O)N1CCC(CC(NC(=O)c2ccc(F)cc2)c2nc(C3CCCC3)no2)CC1 (stereo not drawn) [Example 198] :: 251
CCN(CC)c1ccc(C(CC2CCN(C(=O)OC(C)(C)C)CC2)NC(=O)c2ccc(F)cc2)cn1 (stereo not drawn) [Example 122] :: 39.8

Dear reader, for each entry below, please note its IC50.
1. COc1ccc(C(=O)N[C@@H](CC2CCN(C(=O)OC(C)(C)C)CC2)c2ccccc2)cn1 [Example 123]
2. CCOC(=O)N1CCC(C[C@@H](NC(=O)c2ccc(Cl)s2)C2CC2)CC1 [Example 177]
3. C=CC[C@H](CC1CCN(C(=O)OC(C)(C)C)CC1)NC(=O)c1ccc(Cl)s1 [Example 34]
4. C[C@H](CC1CCN(C(=O)Oc2ccccc2)CC1)NC(=O)c1ccc(Cl)s1 [Example 42]
5. O=C(NC(CC1CCN(C(=O)OCC2CC2)CC1)c1ccccc1)c1ccc(Cl)cc1 (stereo not drawn) [Example 105]
6. C#Cc1ccc(C(=O)NC(CC2CCN(C(=O)OC(C)(C)C)CC2)c2ccccc2)cc1 (stereo not drawn) [Example 5]
7. CC(C)(C)OC(=O)N1CCC(C[C@H](NC(=O)c2ccc(Br)cc2)C2CC2)CC1 [Example 63]
8. CC(C)(C)OC(=O)N1CCC(CC(NC(=O)c2ccc(Cl)cc2)C2CCCC2)CC1 (stereo not drawn) [Example 151]

Return:
39.8
126
3.98
5.01
25.1
7.94
12.6
79.4

Dear reader, for each entry below, please note its IC50.
1. COc1cc(C(=O)NC(CC2CCN(C(=O)OC(C)(C)C)CC2)c2ccccc2)ccc1Cl (stereo not drawn) [Example 161]
2. CCc1ccc(C(=O)N[C@@H](CC2CCN(C(=O)OC(C)(C)C)CC2)c2ccccc2)s1 [Example 30]
3. O=C(NC(CC1CCN(S(=O)(=O)N2CCCCC2)CC1)c1ccccc1)c1ccc(Cl)cc1 (stereo not drawn) [Example 197]
4. Cc1ccc(C(=O)NC(CC2CCN(C(=O)OC(C)(C)C)CC2)c2ccccc2)s1 (stereo not drawn) [Example 69]
5. CC(C)(C)OC(=O)N1CCC(CC(NC(=O)c2ccc(O)cc2)c2ccccc2)CC1 (stereo not drawn) [Example 195]
6. CC(C)(C)OC(=O)N1CCC(CC(NC(=O)c2ccc(F)cc2)c2nnc(C3CC3)o2)CC1 (stereo not drawn) [Example 221]
7. CC(C)(C)OC(=O)N1CCC(CC(NC(=O)c2ccc(C#N)c(F)c2)c2ccccc2)CC1 (stereo not drawn) [Example 162]

Return:
100
10
251
15.8
251
501
100

Dear reader, for each entry below, please note its IC50.
1. CCCC(=O)N1CCC(CC(NC(=O)c2ccc(Cl)cc2)c2ccccc2)CC1 (stereo not drawn) [Example 154]
2. CC(C)C(CC1CCN(C(=O)OC(C)(C)C)CC1)NC(=O)c1ccc(Cl)cc1 (stereo not drawn) [Example 88]
3. COCCN(C)c1nnc(C(CC2CCN(C(=O)OC(C)(C)C)CC2)NC(=O)c2ccc(Cl)s2)o1 (stereo not drawn) [Example 113]
4. C=CC[C@@H](CC1CCN(C(=O)OC(C)(C)C)CC1)NC(=O)c1ccc(Cl)s1 [Example 155]
5. CC(C)(C)OC(=O)N1CCC(CC(NC(=O)c2ccccc2F)c2ccccc2)CC1 (stereo not drawn) [Example 219]
6. CCc1ccc(C(=O)NC(CC2CCN(C(=O)OC(C)(C)C)CC2)C(C)C)s1 (stereo not drawn) [Example 49]
7. CCc1ccc(C(=O)NC(CC2CCN(C(=O)OC(C)(C)C)CC2)C2CCCC2)s1 (stereo not drawn) [Example 78]

Return:
[79.4, 20, 31.6, 79.4, 501, 6.31, 15.8]

Dear reader, for each entry below, please note its IC50.
1. O=C(NC(CC1CCN(C(=O)Oc2ccccc2)CC1)c1ccccc1)c1ccc(Cl)cc1 (stereo not drawn) [Example 104]
2. CC(C)(C)OC(=O)N1CCC(CC(NC(=O)c2ccc(Br)c(F)c2)c2ccccc2)CC1 (stereo not drawn) [Example 71]
3. CC(C)c1ccc(C(=O)NC(CC2CCN(C(=O)OC(C)(C)C)CC2)c2ccccc2)cc1 (stereo not drawn) [Example 212]
4. CC(C)(C)OC(=O)N1CCC(CC(NC(=O)c2ccc(C3CC3)c(F)c2)c2ccccc2)CC1 (stereo not drawn) [Example 133]
5. CC(C)CC(CC1CCN(C(=O)OC(C)(C)C)CC1)NC(=O)c1ccc(Br)cc1 (stereo not drawn) [Example 27]
6. Cc1ccc(C(=O)NC(CC2CCN(C(=O)OC(C)(C)C)CC2)c2ccccc2)cn1 (stereo not drawn) [Example 217]

Return:
1. 25.1
2. 15.8
3. 398
4. 50.1
5. 10
6. 501
